Tested on: RAW264.7
assay_method_text: Antiinflammatory activity in mouse RAW264.7 assessed as inhibition of LPS-induced NO production preincubated for 30 mins followed by LPS stimulation measured after 24 hrs by Griess reagent based assay relative to control
Assay type: functional
Design: concentration or dose not given beside the values
condition_info: 0.5 h
property: inhibition (INH) (%)

>>> df
                  compound_structure_string  number
0  COC(=O)c1cc(O)c(O)cc1NC(=O)c1cc(O)ccc1OC    78.8
1     COC(=O)c1cc(O)ccc1NC(=O)c1cccc(O)c1OC    61.2
2  COC(=O)c1c(NC(=O)c2cccc(O)c2OC)ccc(O)c1OC      43
3  O=c1c(O)c(-c2ccc(O)c(O)c2)oc2cc(O)cc(O)c12    48.6
4      COC(=O)c1cc(O)c(O)cc1NC(=O)c1ccccc1O    57.6
5   COC(=O)c1cc(O)c(O)cc1NC(=O)c1cc(O)ccc1O    40.3
